system: A549/ATCC NSCLC; experiment: NCI-60 one-dose screen, 48 h (100 = growth as untreated, 0 = no growth, -100 = all killed); conditions: 10 µM unless noted
The panel holds about 83,000 compounds, 20% with a hit somewhere; the sample as a whole holds those more often.
What growth was measured for each of the following?
One number for each entry, in %.

Answered examples (4):
{"molecule": "O=C(CCCN1CCOCC1)Nc1ccc(Cn2nnc3c2C(=O)c2nnn(Cc4ccc(NC(=O)CCCN5CCOCC5)cc4)c2C3=O)cc1", "endpoint": "growth", "quantitative-result": 83.8}
{"molecule": "CC(=O)Oc1cc2cnc3c4cc(OC(C)=O)c(OC(C)=O)cc4ccc3c2cc1OC(C)=O", "endpoint": "growth", "quantitative-result": 25.5}
{"molecule": "Cn1cc(-c2nc(-c3c[nH]c4ccccc34)cs2)c2cccnc21", "endpoint": "growth", "quantitative-result": 34.2}
{"molecule": "N=S(=O)(NC(=O)c1ccc(Cl)cc1Cl)c1ccc(Br)s1 (stereo not given)", "endpoint": "growth", "quantitative-result": 80.7}

Exam item: Give A549/ATCC NSCLC growth for the following molecule: COc1ccc(CNc2nccnn2)cc1
Marked response: 96.9

====

system: OVCAR-4 ovarian; assay: NCI-60 one-dose screen, 48 h; settings: 10 µM unless noted
The panel holds about 83,000 compounds, 20% with a hit somewhere; the sample as a whole holds those more often. Active and inactive are the calls of the source. Rule for the calls: active = growth percent below 10; inactive = the rest.
Just give me one of these, please: active, inactive

Exam item: For C=C1CC[C@@H]2[C@](C)(COC(C)=O)[C@H](OC(C)=O)CC[C@@]2(C)[C@@H]1CC(Nc1ccc(S(=O)(=O)Nc2ccc(Cl)nn2)cc1)C1=CCOC1=O (stereo partly drawn) , what call appears in the results of this test?
Marked response: inactive

Exam item: For CCCCCCCCSC1=CC(=O)C(OC)=C(OC)C1=O , what call appears in the results of this test?
Marked response: inactive

Exam item: For CCN1CCN(Cc2ccc(NC(=O)Nc3nc4ccc(Oc5ccnc(C(=O)NC)c5)cc4s3)cc2C(F)(F)F)CC1 , what call appears in the results of this test?
Marked response: active

Exam item: For COc1cc(-c2nc3ccccc3s2)ccc1NC(=O)COc1ccc(Cl)cc1 , what call appears in the results of this test?
Marked response: active

Exam item: For O=C(CN1CCN(c2cc3c(cc2F)c(=O)c(C(=O)N/N=C/c2ccccc2)cn3C2CC2)CC1)N/N=C\c1ccccc1 , what call appears in the results of this test?
Marked response: inactive

Exam item: For C=C(CN1CCN(c2cccc(C(F)(F)F)n2)CC1)c1ccc(C(=O)Nc2ccccc2N)cc1 , what call appears in the results of this test?
Marked response: inactive

Exam item: For CC/C=C\C[C@H](O)C/C=C1/C(=O)C=C[C@@H]1C/C=C\CCCC(N)=O , what call appears in the results of this test?
Marked response: inactive

Exam item: For CC[C@H](Nc1nc(N)nc(C)c1C#N)c1nc2cccc(NCc3ccc(C(=O)NO)cc3)c2c(=O)n1-c1ccccc1 , what call appears in the results of this test?
Marked response: inactive

Exam item: For O=C1c2cc3c(cc2-c2c1c1cc(F)c(F)cc1c(=O)n2C[C@H](O)CO)OCO3 , what call appears in the results of this test?
Marked response: active

Exam item: For CSc1nc2sc3c(c2c(=O)n1-c1ccc(C(C)C)cc1)CCC(=O)C3 , what call appears in the results of this test?
Marked response: inactive

Exam item: For CCCCCCCCCCCCCCCCCCSC1=CC(=O)C(OC)=C(OC)C1=O , what call appears in the results of this test?
Marked response: inactive

Exam item: For CCN(CC)c1ccc(CNc2cc(C)nc3ccc(OC)cc23)cc1 , what call appears in the results of this test?
Marked response: inactive

Exam item: For Cc1cc(-c2nc3ccccc3s2)ccc1NC(=O)COc1ccc(Cl)cc1 , what call appears in the results of this test?
Marked response: inactive

Exam item: For C[C@H](CCC(=O)O)[C@H]1CC[C@H]2[C@@H]3CC[C@@H]4/C(=C\c5ccco5)C(=O)/C(=C\c5ccco5)C[C@]4(C)[C@H]3CC[C@]12C , what call appears in the results of this test?
Marked response: inactive

Exam item: For CCOC(=O)c1c2ncccc2n2c(=O)n(-c3ccc(Cl)cc3)nnc12 , what call appears in the results of this test?
Marked response: inactive

Exam item: For O=[N+]([O-])c1cccc(-c2nc3sccn3c2-c2ccnc(NCCCNS(=O)(=O)c3cccc(F)c3)n2)c1 , what call appears in the results of this test?
Marked response: active

Exam item: For COc1ccc(C/C(C)=C(\c2ccc(Cl)cc2)c2ccc(OCCN3CCCCCC3)cc2)cc1 , what call appears in the results of this test?
Marked response: inactive

Exam item: For O=C1C(Cl)=C(Cl)C(=O)c2c1nc1n2CCCC1 , what call appears in the results of this test?
Marked response: inactive

====

test system: RPMI-8226 leukemia; experiment: NCI-60 one-dose screen, 48 h (100 = growth as untreated, 0 = no growth, -100 = all killed); settings: 10 µM unless noted
About 83,000 compounds went through this panel and 20% of them were active in at least one assay; those are over-represented in the sample as a whole. The source made the active and inactive calls. Rule for the calls: active = growth percent below 10; inactive = the rest.
endpoint: growth

{"molecule": "COc1ccc(C2Nc3ccccc3-n3cccc32)cc1 (stereo not given)", "growth": "89.4% (inactive)"}
{"molecule": "Cc1cc(Nc2nc(N3CCN(C)CC3)nc3ccccc23)n[nH]1", "growth": "87.2% (inactive)"}
{"molecule": "Cc1noc(C)c1-c1cc(O)cc(C(O)c2ccccc2)c1 (stereo not given)", "growth": "14.9% (inactive)"}

// each molecule listed below needs its growth
1. O=C(NC(Cc1ccccc1)C(=O)CCl)OCc1ccccc1 (stereo not given)
2. CCCCCCCCCCCCN1CCCC(C)C1 (stereo not given)
3. COc1cc(/C=N/N(C)C)ccc1O

Marked response:
1: 9.51% (active); 2: 64.1% (inactive); 3: 92.4% (inactive)

// each molecule listed below needs its growth
1. CCN(CC)CC(O)CNc1c2ccc([N+](=O)[O-])cc2nc2cc(OC)c(OC)cc12 (stereo not given)
2. CNC(=O)c1cc(Oc2ccc3nc(NC(=O)Nc4ccc(N5CCC(N(C)C)CC5)cc4)sc3c2)ccn1
3. CC[C@@H](C)OC(=O)c1nn(C(C)=O)c2ccccc12
4. Cn1c2ccccc2c2c3c(c4c5ccccc5n(CCCCCC#N)c4c21)C(=O)N(O)C3=O
5. COc1cc(-c2c3sc(=O)[nH]c3nc3c2c(=O)[nH]n3C(C)C)cc2c1OCO2
6. CC(C)Oc1nc2c(c(=O)n(C)c(=O)n2C)n1C

Marked response:
-13.8% (active)
74.2% (inactive)
107% (inactive)
0.134% (active)
124% (inactive)
105% (inactive)

// each molecule listed below needs its growth
1. O=C(O)c1ccccc1Nc1cccc(S(F)(F)(F)(F)F)c1
2. CN1CCN(Cc2ccc(NC(=O)c3[nH]ncc3Nc3ccnc4ccsc34)cc2)CC1
3. Cc1ccc2cnc(N)c(C#Cc3cncc(C(=O)Nc4ccc(CN5CCN(C)CC5)c(C(F)(F)F)c4)c3)c2c1
4. COc1cc(C#N)cc(OC)c1OCCN(CCOc1c(OC)cc(C#N)cc1OC)S(=O)(=O)c1ccc(C)cc1
5. NC1=CSC2=N/C(=C\c3ccc(Cl)cc3)C(=O)N12
6. C=C1CC2(OC1=O)C(=O)N(CCCCCCCCCCCCN1C(=O)C3(CC(=C)C(=O)O3)c3ccccc31)c1ccccc12 (stereo not given)

Marked response:
1. 100% (inactive)
2. 19.2% (inactive)
3. -31.4% (active)
4. 90.6% (inactive)
5. 39.9% (inactive)
6. 3.98% (active)

// each molecule listed below needs its growth
1. CC(C)C1=C[C@@]23CC[C@@H]4[C@](C)(CCC[C@@]4(C)C(=O)OCC#CCN4CCCC4)[C@H]2C[C@@H]1[C@H]1C(=O)OC(=O)[C@H]13
2. CC[C@H](Nc1nc(N)nc(C)c1C#N)c1nc2cccc(NCc3ccc(C(=O)NO)cc3)c2c(=O)n1-c1ccccc1

Marked response:
["80.3% (inactive)", "4.78% (active)"]

====

tested on: T-47D breast; assay: NCI-60 one-dose screen, 48 h; conditions: 10 µM unless noted
The panel holds about 83,000 compounds, 20% with a hit somewhere; the sample as a whole holds those more often. Activity calls are given as the source filed them. The calls were made as follows: active = growth percent below 10; inactive = the rest.
Just give me one of these, please: T = active, F = inactive

{"compound": "CS(=O)(=O)c1c(Nc2ccccc2)n[nH]c1N", "test-system": "T-47D breast", "assigned-class": "F"}

Exam item: For COc1ccc(/C=C2\N=C3SC=C(N)N3C2=O)cc1 , what call appears in the results of this test?
Marked response: T

Exam item: For O=C(O)c1c([N+](=O)[O-])cnc2ccccc12 , what call appears in the results of this test?
Marked response: F

Exam item: For Cc1ccc(S(=O)(=O)N(CCc2ccc(Cl)cc2)S(=O)(=O)c2ccc(C)cc2)cc1 , what call appears in the results of this test?
Marked response: F

Exam item: For Oc1cc(O)c2c(=S)cc(-c3ccc(Cl)cc3)oc2c1 , what call appears in the results of this test?
Marked response: T

Exam item: For O=C1C2CC=CCC2C(=O)N1CNc1ccc(Cl)cc1 (stereo unspecified) , what call appears in the results of this test?
Marked response: F
